# maps each entry to its pIC50
- ASSAYED SYSTEM: UniProt:P32246
pIC50: −log10 of the molar value.

| MOLECULE | ASSAYED SYSTEM | pIC50 |
| --- | --- | --- |
| Cc1nnc([C@H]2CCCN2C(=O)Nc2ccc(C#N)c(C(F)(F)F)c2)n1Cc1ccc(Cl)cc1 | UniProt:P32246 | 6.30 to 7.30 |
| O=C(Nc1ccc(SC(F)(F)F)cc1)N1CCC[C@@H]1c1ncnn1Cc1ccc(Cl)cc1 | UniProt:P32246 | 6.30 to 7.30 |
| Cc1nnc([C@H]2C[C@@H](O)CN2C(=O)Nc2ccc(OC3CCOCC3)nc2)n1Cc1ccc(Cl)cc1 | UniProt:P32246 | 5.30 to 6.30 |
| Cc1nnc([C@H]2CCCN2C(=O)Nc2ccc(C(F)(F)F)cn2)n1Cc1ccc(Cl)cc1 | UniProt:P32246 | 6.30 to 7.30 |
| C[C@@H](NC(=O)N1CCC[C@@H]1c1nnc(CO)n1Cc1ccc(Cl)cc1)c1ccc(Cl)cc1 | UniProt:P32246 | 6.30 to 7.30 |
| O=C(Nc1ccc(Cl)cc1F)N1CCC[C@@H]1c1nnc(Cl)n1Cc1ccc(Cl)cc1 | UniProt:P32246 | > 7.30 |
| Cc1cc(C(F)(F)F)cc(C)c1NC(=O)N1CCC[C@@H]1c1ncnn1Cc1ccc(Cl)cc1 | UniProt:P32246 | > 7.30 |
| N#Cc1ccc2c(c1)OCCC2NC(=O)N1CCC[C@@H]1c1ncnn1Cc1ccc(Cl)cc1 (stereo partly drawn) | UniProt:P32246 | 6.30 to 7.30 |
| CC[C@H](NC(=O)N1CCC[C@@H]1c1nnc(C)n1Cc1ccc(Cl)cc1)c1ccc(C(F)(F)F)cc1 | UniProt:P32246 | > 7.30 |
| CN1C(=O)COc2ccc(NC(=O)N3CCC[C@@H]3c3ncnn3Cc3ccc(Cl)cc3)cc21 | UniProt:P32246 | 6.30 to 7.30 |
| Cc1ccncc1NC(=O)N1CCC[C@@H]1c1nnc(C)n1Cc1ccc(Cl)cc1 | UniProt:P32246 | 6.30 to 7.30 |
| Cc1nnc([C@H]2CCCN2C(=O)NC2(c3cccc(F)c3)CC2)n1Cc1ccc(Cl)cc1 | UniProt:P32246 | > 7.30 |
| Cc1nnc([C@H]2CCCN2C(=O)Nc2cc(C(N)=O)ccc2C(F)(F)F)n1Cc1ccc(Cl)cc1 | UniProt:P32246 | 6.30 to 7.30 |
| N#Cc1ccc2c(c1)OCC[C@@H]2NC(=O)N1CCC[C@@H]1c1nnc(CO)n1Cc1ccc(Cl)cc1 | UniProt:P32246 | > 7.30 |
| Cc1cc(C)c(NC(=O)N2CCC[C@@H]2c2nnc(C)n2Cc2ccc(Cl)cc2)c(C(=O)O)c1 | UniProt:P32246 | 5.30 to 6.30 |

----------
Target chain: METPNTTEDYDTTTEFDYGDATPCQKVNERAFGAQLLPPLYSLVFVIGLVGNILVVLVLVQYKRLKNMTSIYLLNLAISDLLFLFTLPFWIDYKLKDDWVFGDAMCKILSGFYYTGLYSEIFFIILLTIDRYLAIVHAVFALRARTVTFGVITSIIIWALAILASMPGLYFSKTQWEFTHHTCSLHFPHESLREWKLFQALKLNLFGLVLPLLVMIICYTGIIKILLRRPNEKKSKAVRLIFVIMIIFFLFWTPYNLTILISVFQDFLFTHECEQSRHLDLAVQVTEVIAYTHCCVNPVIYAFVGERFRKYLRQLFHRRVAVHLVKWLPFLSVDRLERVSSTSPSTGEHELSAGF
pIC50: −log10 of the molar value.

| COMPOUND | pIC50 |
| --- | --- |
| Cc1nnc([C@H]2CC(F)CN2C(=O)NC2C[C@@H]2c2ccccc2)n1Cc1ccc(Cl)cc1 (stereo partly shown) | 6.30 to 7.30 |
| O=C(N[C@H]1CCCc2ccccc21)N1CCC[C@@H]1c1nnnn1Cc1ccc(Cl)cc1 | > 7.30 |
| Cc1cnccc1NC(=O)N1CCC[C@@H]1c1nnc(C)n1Cc1ccc(Cl)cc1 | 6.30 to 7.30 |
| Cc1ccc(S(C)(=O)=O)c(C)c1NC(=O)N1CCC[C@@H]1c1nnc(C)n1Cc1ccc(Cl)cc1 | > 7.30 |
| Cc1nnc([C@H]2CCCN2C(=O)N[C@H]2CCOc3cc(C(F)(F)F)ccc32)n1[C@H](C)c1ccc(Cl)cc1 | 6.30 to 7.30 |
| Cc1onc(-c2ccccc2)c1NC(=O)N1CCC[C@@H]1c1ncnn1Cc1ccc(Cl)cc1 | > 7.30 |
| Cc1nnc([C@H]2CCCN2C(=O)Nc2ccc(C(F)(F)F)nc2)n1Cc1ccc(Cl)cc1 | 6.30 to 7.30 |
